Quick reference for kon among some binders
biological target: human NKp30 (human) (UniProt O14931); test: BLI, immunoligand on anti-hFc tip
Sequence (O14931 19-135 limits assumed): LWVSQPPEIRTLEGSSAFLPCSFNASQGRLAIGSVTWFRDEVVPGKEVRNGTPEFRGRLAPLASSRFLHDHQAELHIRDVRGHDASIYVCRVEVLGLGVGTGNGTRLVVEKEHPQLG
Note: unit M⁻¹ s⁻¹ is implicit; provide only the numeric part.

Example cases with answers are listed next.
Binder | kon (M⁻¹ s⁻¹)
ΔB7-H6_S3#9-SEED-PGLALA (bispecific antibody, part only; not given: SEED Fc chains and hu225 EGFR Fab, part only) chain, part: DLKVEMMAGGTQITPLNDNVTIFCNIFYSQPLNITHMGITWFWKSLTFDKEVKVFEFFGDHQEAFRPGAIVSPWRLKSGDASLRLPGIQLEEAGEYRCEVVVTPYKAQGTVQLEVVASPAS | 970000
ΔB7-H6_wt-SEED-PGLALA (bispecific antibody, part only; not given: SEED Fc chains and hu225 Fab, part only) chain, part: DLKVEMMAGGTQITPLNDNVTIFCNIFYSQPLNITSMGITWFWKSLTFDKEVKVFEFFGDHQEAFRPGAIVSPWRLKSGDASLRLPGIQLEEAGEYRCEVVVTPLKAQGTVQLEVVASPAS | 412000

Please examine the following record next.
Asked: Given ΔB7-H6_S2#1-SEED-PGLALA (bispecific antibody, part only; not given: SEED Fc chains and hu225 EGFR Fab, part only) chain, part: DLKVEMMAGGTQITPLNDNVTIFCNIFYSQPLNITSMGITWFWKSLTFDKEVKVFEFYGDHQEAFRPGAIVSPWRLKSGDASLRLPGIQLEEAGEYRCEVVVTPYKAQGTVQLEVVASPAS , state its recorded kon.
Given back: 380000
